experiment: PK of compound of Formula (Ia) after single subcutaneous dose of solution formulations in Wistar Han rats; assay type: in vivo; conditions: male, Wistar Han, rat, plasma, sc, 50 mg/kg, 96.0 h; mean, n = 5 rats; SC 50 mg/kg; solution U, 500 mg/mL
QUANTITY MEASURED: concentration at 96 h (nM)
Reply numerically in nM, unit not repeated.

## Task Hello, please tell me recorded concentration at 96 h for this one: `CC(C)(C#Cc1ccc(-c2ccc(Cl)c3c(NS(C)(=O)=O)nn(CC(F)(F)F)c23)c([C@H](Cc2cc(F)cc(F)c2)NC(=O)Cn2nc(C(F)(F)F)c3c2C(F)(F)[C@@H]2C[C@H]32)n1)S(C)(=O)=O`
## Result 167

====

assay: PK of compound of Formula (Ia) after single subcutaneous dose of solution formulations in Wistar Han rats; type: in vivo; settings: male, Wistar Han, rat, plasma, sc, 50 mg/kg, 8.00 h; mean, n = 3 rats; SC 50 mg/kg; solution R, 400 mg/mL
QUANTITY MEASURED: concentration at 8 h (nM)
Record the value in nM, omitting the unit from your answer.

## Task Provide measured concentration at 8 h value, entry: `CC(C)(C#Cc1ccc(-c2ccc(Cl)c3c(NS(C)(=O)=O)nn(CC(F)(F)F)c23)c([C@H](Cc2cc(F)cc(F)c2)NC(=O)Cn2nc(C(F)(F)F)c3c2C(F)(F)[C@@H]2C[C@H]32)n1)S(C)(=O)=O`
## Result 112

====

assay: PK of compound of Formula (Ia) after single subcutaneous dose of solution formulations in Wistar Han rats; format: in vivo; details: male, Wistar Han, rat, plasma, sc, 50 mg/kg, Wistar Han rats, SC 50 mg/kg, 500 mg/mL solution X (5.00% ethanol, 1.91% poloxamer 188), 3024 h, Mean n = 3
QUANTITY MEASURED: concentration at 3024 h (nM)
Reply numerically in nM, unit not repeated.

## Task Given CC(C)(C#Cc1ccc(-c2ccc(Cl)c3c(NS(C)(=O)=O)nn(CC(F)(F)F)c23)c([C@H](Cc2cc(F)cc(F)c2)NC(=O)Cn2nc(C(F)(F)F)c3c2C(F)(F)[C@@H]2C[C@H]32)n1)S(C)(=O)=O [compound of Formula (Ia)] , respond with its concentration at 3024 h.
## Result 161

====

assay: PK of compound of Formula (Ia) after single subcutaneous dose of solution formulations in Wistar Han rats; assay type: in vivo; conditions: male, Wistar Han, rat, plasma, sc, 50 mg/kg, 1680 h; individual rats; SC 50 mg/kg; solution V, 300 mg/mL
QUANTITY MEASURED: concentration at 1680 h (nM)
I only need the number, in nM, no unit after it.

## Task Please give measured concentration at 1680 h of the following entry: `CC(C)(C#Cc1ccc(-c2ccc(Cl)c3c(NS(C)(=O)=O)nn(CC(F)(F)F)c23)c([C@H](Cc2cc(F)cc(F)c2)NC(=O)Cn2nc(C(F)(F)F)c3c2C(F)(F)[C@@H]2C[C@H]32)n1)S(C)(=O)=O`
## Result 221

====

test: PK of compound of Formula (Ia) after single subcutaneous dose of solution formulations in Wistar Han rats; type: in vivo; conditions: male, Wistar Han, rat, plasma, sc, 50 mg/kg, mean ± SD, n = 3 rats; SC 50 mg/kg; solution S, 500 mg/mL
QUANTITY MEASURED: Cmax (nM)
Provide the reading as a plain figure in nM.

## Task Item `CC(C)(C#Cc1ccc(-c2ccc(Cl)c3c(NS(C)(=O)=O)nn(CC(F)(F)F)c23)c([C@H](Cc2cc(F)cc(F)c2)NC(=O)Cn2nc(C(F)(F)F)c3c2C(F)(F)[C@@H]2C[C@H]32)n1)S(C)(=O)=O` : provide Cmax
## Result 328

====

experiment: PK of compound of Formula (Ia) after single subcutaneous dose of solution formulations in beagle dogs; type: in vivo; conditions: male, beagle, dog, plasma, sc, 12 mg/kg, male beagle dogs, single SC 12 mg/kg, 500 mg/mL solution X (5.00% ethanol, 1.91% poloxamer 188), mean ± SD, n = 3; read-out: AUC0-4368 h
QUANTITY MEASURED: AUC(0-t)
Respond with the figure and its unit, in that order.

## Task # return recorded AUC(0-t) for input `CC(C)(C#Cc1ccc(-c2ccc(Cl)c3c(NS(C)(=O)=O)nn(CC(F)(F)F)c23)c([C@H](Cc2cc(F)cc(F)c2)NC(=O)Cn2nc(C(F)(F)F)c3c2C(F)(F)[C@@H]2C[C@H]32)n1)S(C)(=O)=O`
## Result 148 µM·h

====

experiment: PK of compound of Formula (Ia) after single subcutaneous dose of solution formulations in beagle dogs; assay type: in vivo; conditions: male, beagle, dog, plasma, sc, 12 mg/kg, beagle dogs, SC 12 mg/kg, 400 mg/mL solution Y (water, PEG 300), 2016 h, Mean n = 3
QUANTITY MEASURED: concentration at 2016 h (nM)
Response body: numeric value in nM, unit text excluded.

## Task Tell me its concentration at 2016 h given CC(C)(C#Cc1ccc(-c2ccc(Cl)c3c(NS(C)(=O)=O)nn(CC(F)(F)F)c23)c([C@H](Cc2cc(F)cc(F)c2)NC(=O)Cn2nc(C(F)(F)F)c3c2C(F)(F)[C@@H]2C[C@H]32)n1)S(C)(=O)=O [compound of Formula (Ia)] as the entry.
## Result 18.6

====

assay: PK of compound of Formula (Ia) after single intramuscular dose of solution formulations in Wistar Han rats; assay type: in vivo; conditions: male, Wistar Han, rat, plasma, intramuscular, 100 mg/kg, Solution J (~400 mg/mL, poloxamer 188); IM 100 mg/kg; Wistar Han rats; mean, n = 4; 1.00 h; read-out: Plasma concentration, Mean
QUANTITY MEASURED: concentration at 1 h (nM)
Write the value in nM as a bare number.

## Task Please report concentration at 1 h for the following compound: CC(C)(C#Cc1ccc(-c2ccc(Cl)c3c(NS(C)(=O)=O)nn(CC(F)(F)F)c23)c([C@H](Cc2cc(F)cc(F)c2)NC(=O)Cn2nc(C(F)(F)F)c3c2C(F)(F)[C@@H]2C[C@H]32)n1)S(C)(=O)=O [compound of Formula (Ia)]
## Result 249

====

experiment: PK of compound of Formula (Ia) after single subcutaneous dose of solution formulations in Wistar Han rats; assay type: in vivo; settings: male, Wistar Han, rat, plasma, sc, 50 mg/kg, 168 h; mean, n = 5 rats; SC 50 mg/kg; solution T, 400 mg/mL
QUANTITY MEASURED: concentration at 168 h (nM)
Return type: number; implicit unit nM.

## Task Tell me its concentration at 168 h given `CC(C)(C#Cc1ccc(-c2ccc(Cl)c3c(NS(C)(=O)=O)nn(CC(F)(F)F)c23)c([C@H](Cc2cc(F)cc(F)c2)NC(=O)Cn2nc(C(F)(F)F)c3c2C(F)(F)[C@@H]2C[C@H]32)n1)S(C)(=O)=O` as the entry.
## Result 173

====

experiment: PK of compound of Formula (Ia) after single subcutaneous dose of solution formulations in beagle dogs; format: in vivo; conditions: male, beagle, dog, plasma, sc, 12 mg/kg, beagle dogs, SC 12 mg/kg, 500 mg/mL solution X (5.00% ethanol, 1.91% poloxamer 188), 1008 h, Mean n = 3
QUANTITY MEASURED: concentration at 1008 h (nM)
Give a bare numeral; the unit nM is implied.

## Task State its concentration at 1008 h for this molecule: CC(C)(C#Cc1ccc(-c2ccc(Cl)c3c(NS(C)(=O)=O)nn(CC(F)(F)F)c23)c([C@H](Cc2cc(F)cc(F)c2)NC(=O)Cn2nc(C(F)(F)F)c3c2C(F)(F)[C@@H]2C[C@H]32)n1)S(C)(=O)=O [compound of Formula (Ia)]
## Result 68.3

====

Test: PK of compound of Formula (Ia) after single subcutaneous dose of solution formulations in Wistar Han rats
Assay type: in vivo
Details: male, Wistar Han, rat, plasma, sc, 50 mg/kg, Wistar Han rats, SC 50 mg/kg, 500 mg/mL solution X (5.00% ethanol, 1.91% poloxamer 188), 1.00 h, Mean n = 3
Description: Formulations containing the compound of Formula (Ia), or a pharmaceutically acceptable salt thereof, were prepared as solutions and optionally administered subcutaneously or intramuscularly to rats, rabbits, and/or dogs. A solution of about 400 mg/mL of the compound of Formula (Ia) having 19.14 w/w % water, 40.66 w/w % PEG 300, 35.20 w/w % of a sodium salt of a compound of Formula (Ia), and 5.00% ethanol was prepared. […]
QUANTITY MEASURED: concentration at 1 h (nM)
Express your answer in nM, writing the number without its unit.

## Task Retrieve concentration at 1 h measured for CC(C)(C#Cc1ccc(-c2ccc(Cl)c3c(NS(C)(=O)=O)nn(CC(F)(F)F)c23)c([C@H](Cc2cc(F)cc(F)c2)NC(=O)Cn2nc(C(F)(F)F)c3c2C(F)(F)[C@@H]2C[C@H]32)n1)S(C)(=O)=O [compound of Formula (Ia)] and print it.
## Result 46.8
